Biological target: Epidermal growth factor receptor (Homo sapiens, UniProt P00533, T790M)
Sequence (P00533 25-1210 T790M limits assumed): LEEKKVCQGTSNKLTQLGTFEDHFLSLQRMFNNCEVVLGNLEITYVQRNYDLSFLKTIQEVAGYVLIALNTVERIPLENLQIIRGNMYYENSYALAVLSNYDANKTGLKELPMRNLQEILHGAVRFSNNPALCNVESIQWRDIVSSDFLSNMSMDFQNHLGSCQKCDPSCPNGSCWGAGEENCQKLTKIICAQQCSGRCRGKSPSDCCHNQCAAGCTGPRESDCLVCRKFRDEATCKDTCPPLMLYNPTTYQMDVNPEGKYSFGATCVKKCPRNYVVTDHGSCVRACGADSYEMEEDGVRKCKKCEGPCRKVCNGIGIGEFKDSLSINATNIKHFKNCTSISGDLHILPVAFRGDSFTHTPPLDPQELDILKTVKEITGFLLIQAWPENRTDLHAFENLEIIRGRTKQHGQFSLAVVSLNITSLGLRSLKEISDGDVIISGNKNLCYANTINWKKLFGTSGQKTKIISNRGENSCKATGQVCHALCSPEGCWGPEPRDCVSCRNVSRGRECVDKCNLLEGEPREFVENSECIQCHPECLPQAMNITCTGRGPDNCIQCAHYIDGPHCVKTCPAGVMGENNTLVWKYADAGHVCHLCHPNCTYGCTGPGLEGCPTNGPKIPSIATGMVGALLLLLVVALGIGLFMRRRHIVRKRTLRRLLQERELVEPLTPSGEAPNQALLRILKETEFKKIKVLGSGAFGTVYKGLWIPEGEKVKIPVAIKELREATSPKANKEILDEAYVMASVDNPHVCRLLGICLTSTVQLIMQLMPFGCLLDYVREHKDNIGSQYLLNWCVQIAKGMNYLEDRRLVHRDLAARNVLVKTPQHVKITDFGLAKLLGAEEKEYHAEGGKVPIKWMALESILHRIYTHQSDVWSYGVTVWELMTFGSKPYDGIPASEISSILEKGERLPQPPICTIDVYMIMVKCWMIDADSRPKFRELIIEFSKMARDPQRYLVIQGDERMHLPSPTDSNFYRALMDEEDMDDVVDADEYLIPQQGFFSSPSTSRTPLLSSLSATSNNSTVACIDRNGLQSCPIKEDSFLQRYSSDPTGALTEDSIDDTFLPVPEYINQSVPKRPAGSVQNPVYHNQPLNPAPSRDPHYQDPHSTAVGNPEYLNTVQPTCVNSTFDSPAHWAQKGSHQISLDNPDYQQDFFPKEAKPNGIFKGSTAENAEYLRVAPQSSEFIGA
EXPERIMENTAL_ENDPOINT: IC50 (µM)
Answers are plain numbers, in µM.

Entry CN1C(=O)C(C(=O)NN)N(C)c2ccccc21 (stereo unspecified) — recorded IC50 = 4.02

###

Test: Oral bioavailability in mouse at 10 mg/kg
Assay type: ADME, organism-based
Details: in vivo
EXPERIMENTAL_ENDPOINT: bioavailability (%)
Answers are plain numbers, in %.

Entry COc1cc(N2CCC(N3CCN(CCC#Cc4cccc5c4CN(C4CCC(=O)NC4=O)C5=O)CC3)CC2)ccc1Nc1ncc(Cl)c(Nc2ccccc2P(C)(C)=O)n1 (stereo unspecified) — recorded bioavailability = 62.8

###

Target: von Hippel-Lindau disease tumor suppressor/Epidermal growth factor receptor (Homo sapiens, UniProt P00533+P40337)
Sequence (P00533 25-1210 limits assumed, stated change not applied): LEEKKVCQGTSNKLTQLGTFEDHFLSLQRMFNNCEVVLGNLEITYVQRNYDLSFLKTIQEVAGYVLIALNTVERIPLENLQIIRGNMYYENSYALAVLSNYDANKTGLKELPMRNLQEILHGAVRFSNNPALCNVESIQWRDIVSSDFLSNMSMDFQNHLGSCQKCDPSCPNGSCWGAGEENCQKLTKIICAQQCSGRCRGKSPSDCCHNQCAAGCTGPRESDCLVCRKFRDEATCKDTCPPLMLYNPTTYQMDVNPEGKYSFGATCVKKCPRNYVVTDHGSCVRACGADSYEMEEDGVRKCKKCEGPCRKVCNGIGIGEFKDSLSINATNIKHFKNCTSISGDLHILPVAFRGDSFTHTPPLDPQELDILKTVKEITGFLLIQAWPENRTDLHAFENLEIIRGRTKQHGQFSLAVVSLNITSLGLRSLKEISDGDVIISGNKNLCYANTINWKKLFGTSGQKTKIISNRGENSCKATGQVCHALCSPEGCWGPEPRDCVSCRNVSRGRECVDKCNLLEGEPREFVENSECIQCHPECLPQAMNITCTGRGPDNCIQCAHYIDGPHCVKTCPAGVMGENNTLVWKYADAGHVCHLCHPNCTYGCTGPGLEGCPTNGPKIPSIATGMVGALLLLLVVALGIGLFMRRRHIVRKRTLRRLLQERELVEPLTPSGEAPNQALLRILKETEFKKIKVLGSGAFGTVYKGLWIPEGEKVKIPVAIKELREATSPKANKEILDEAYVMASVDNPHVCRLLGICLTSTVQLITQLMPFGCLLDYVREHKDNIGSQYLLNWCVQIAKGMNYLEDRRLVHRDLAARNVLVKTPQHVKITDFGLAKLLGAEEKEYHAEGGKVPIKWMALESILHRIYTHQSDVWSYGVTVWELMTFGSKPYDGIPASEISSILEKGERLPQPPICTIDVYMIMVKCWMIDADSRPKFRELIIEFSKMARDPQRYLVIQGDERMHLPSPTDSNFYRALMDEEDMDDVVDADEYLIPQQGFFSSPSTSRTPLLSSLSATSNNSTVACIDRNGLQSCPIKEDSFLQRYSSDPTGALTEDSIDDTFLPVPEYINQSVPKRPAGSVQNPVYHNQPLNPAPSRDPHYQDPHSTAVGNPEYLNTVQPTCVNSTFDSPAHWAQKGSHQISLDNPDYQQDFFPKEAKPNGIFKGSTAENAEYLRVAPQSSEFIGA
Sequence (P40337 whole entry, stated change not applied): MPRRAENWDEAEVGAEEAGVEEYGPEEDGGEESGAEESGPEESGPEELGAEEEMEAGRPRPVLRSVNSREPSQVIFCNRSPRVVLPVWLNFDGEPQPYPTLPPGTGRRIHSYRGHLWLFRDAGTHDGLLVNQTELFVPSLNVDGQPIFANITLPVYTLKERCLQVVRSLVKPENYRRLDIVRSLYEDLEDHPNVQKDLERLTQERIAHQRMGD
Assay: Protac activity at VHL/EGFR deletion19 mutant in human HCC827 cells assessed as induction of protein degradation
Assay type: cell-based
EXPERIMENTAL_ENDPOINT: pEC50
One number for each entry, as −log10 of the molar value.

Entry Cc1ncsc1-c1ccc(CNC(=O)[C@@H]2C[C@@H](O)CN2C[C@@H](NC(=O)CCCCCCCCCCn2cc(COc3cc4ncnc(Nc5ccc(F)c(Cl)c5)c4cc3NC(=O)/C=C/CN3CCCCC3)nn2)C(C)(C)C)cc1 — recorded pEC50 = 8.45

Where these numbers come from: ChEMBL document CHEMBL5316348
